Reported TGI values are given for each entry in this list.
# System: SK-OV-3 ovarian
# ASSAY_SUMMARY: NCI tumour cell line growth inhibition, 48 h

# example entries with known answers
| MOLECULE | QUANTITY_NAME | EXPERIMENTAL_RESULT |
| --- | --- | --- |
| CN1CC2CC(C1)c1cccc(=O)n1C2 (configuration not stated) | TGI | > 100 µM |
| O=C(c1ccccc1)N1C(=S)N(c2ccc([N+](=O)[O-])cc2)C(=Nc2ccccc2)C1=Nc1ccccc1 | TGI | > 100 µM |
| COc1ccc2c(c1)CCCC1C3=NCCC3(C)CSC21 (configuration not stated) | TGI | > 100 µM |
| Cc1c(O)c(=O)ccn1CCO | TGI | > 100 µM |
| OCC(O)C(O)C(O)C(/C=N\Nc1ncnc2ccc(Br)cc12)=N/Nc1ncnc2ccc(Br)cc12 (configuration not stated) | TGI | > 100 µM |
| O=C(O)c1ccc(C2C3C=CC(C3)C2[N+](=O)[O-])cc1 (configuration not stated) | TGI | > 100 µM |

Data point: O=C1/C(=C/c2ccco2)NC(=S)N1CN1CCOCC1 ; TGI = > 100 µM

Data point: C/C(N=Nc1nc2ccccc2o1)=C1/C=CC=CN1O ; TGI = > 100 µM

Data point: COc1cc(/C=C/C(=O)OC[C@H](Br)[C@H](OC(C)=O)c2ccc3c(c2)OCO3)cc(OC)c1OC ; TGI = > 100 µM

Data point: Cc1nnc2sc(N/N=C/c3ccccc3)nn12 ; TGI = 88.1 µM

Data point: COc1ccc(C2=CN3CCC[C@H]3C=C2c2cc(O)c(OC)c(OC)c2)cc1OC ; TGI = 0.221 µM

Data point: C[C@H](CCC1=NCCN1)[C@H]1CC[C@H]2[C@@H]3CC[C@@H]4C[C@H](O)CC[C@]4(C)[C@H]3C[C@H](O)[C@]12C ; TGI = 31.9 µM

###

# System: NCI-H460 lung
# ASSAY_SUMMARY: NCI tumour cell line growth inhibition, 48 h; in the data active = GI50 below about 0.43 µM; inactive = the rest
Hello, when you answer, please use one of the following outcomes: 1 for active, -1 for inactive

| COMPOUND | CATEGORY |
| --- | --- |
| COc1cc(/C=C2\C(=O)Nc3ccccc32)cc(OC)c1OC | -1 |
| O=C1CC/C(=C\COc2ccc3ccc(=O)oc3c2)O1 | -1 |
| COc1cc(-c2n/c(=C\c3c(O)[nH]c4ccccc34)cc3c2=Nc2ccccc2-3)cc(OC)c1OC | 1 |

Attention now shifts to the item below.
Record request — test call for COc1ccc(-c2nc3sc4c(c3c(=O)[nH]2)CCCC4)c2ccccc12
1

###

# Test system: NCI-H23 lung
# ASSAY_SUMMARY: NCI tumour cell line growth inhibition, 48 h
QUANTITY_NAME: TGI

| COMPOUND | EXPERIMENTAL_RESULT |
| --- | --- |
| COc1ccc(C2c3cc4c(cc3OC(N3CCCCC3)C2C)OCO4)cc1 (stereo not drawn) | > 100 µM |

Data point: CC1(C)N[P+]2(Nc3ccccc3O2)OC1=O (stereo not drawn) ; TGI = > 100 µM

Data point: COc1cc(/C=C/C(=O)OC[C@H](Br)[C@H](OC(C)=O)c2ccc3c(c2)OCO3)cc(OC)c1OC ; TGI = > 100 µM

Data point: Cn1ccc(C(=O)NCCCCCNC(=O)c2ccn(C)c(=O)c2O)c(O)c1=O ; TGI = > 100 µM

Data point: O=C(/C=C\c1ccc2ccccc2n1)c1cc(Cl)ccc1O ; TGI = 19.7 µM

Data point: CN(C)CCOC1(CC2CCCCC2)CCC(C(C)(C)C)CC1 (stereo not drawn) ; TGI = 21.8 µM

Data point: COC1/C=C/C(C)C(C(C)C(OC)C(C)CCC(=O)C(C)C(C/C=C/N(C)C=O)OC)OC(=O)/C=C/C=C(\C)CC(OC)C(OC)C2=CC(=O)O[C@@H](C(C)C(OC)CC(OC)/C=C/C(C)C(O)C1)[C@H]2O (stereo partly drawn) ; TGI = 0.373 µM

Data point: NC(=O)NCCCC(NC(=O)OCCCCCn1ccc(=O)[nH]c1=O)C(=O)O (stereo not drawn) ; TGI = > 100 µM

###

# System: EKVX NSCLC
# ASSAY_SUMMARY: NCI tumour cell line growth inhibition, 48 h
Reported TGI values are given for each entry in this list.

# example entries with known answers
| COMPOUND | QUANTITY_NAME | EXPERIMENTAL_RESULT |
| --- | --- | --- |
| COc1cc2ncn(-c3cc(OCc4ccccc4S(C)(=O)=O)c(C#N)s3)c2cc1OC | TGI | > 25 µM |
| O=C(O)/C=C/C(=O)O | TGI | > 100 µM |
| CC1(C)N[P+]2(Nc3ccccc3O2)OC1=O (centres undefined) | TGI | > 100 µM |
| CCN1CCC(CC(=O)Nc2n[nH]c3nc(-c4cccs4)c(Br)cc23)CC1 | TGI | > 25 µM |
| CCCCCCCCCCCCCCCCn1cc[n+](Cc2ccccc2)c1C | TGI | 2.28 µM |

Data point: N#C[C@H]1Nc2ccccc2[C@@H](O)C1O (some centres undefined) ; TGI = > 100 µM

Data point: OCCO[P+]1(OCCO)n2c3ccc2C(c2ccccc2)=C2C=CC(=N2)C(c2ccccc2)=c2ccc(n21)=C(c1ccccc1)C1=NC(=C3c2ccccc2)C=C1 ; TGI = 1.04 µM

Data point: c1ccc(Nc2nnc(-c3nsc4ccccc34)o2)cc1 ; TGI = > 100 µM

Data point: COc1cc2c(c(OC)c1OC)-c1ccc(SC)c(=O)cc1C(CC(=O)Oc1cccc(C#N)c1)C2 (centres undefined) ; TGI = > 100 µM

###

Reported TGI values are given for each entry in this list.
# Tested on: ACHN renal
# ASSAY_SUMMARY: NCI tumour cell line growth inhibition, 48 h

# example entries with known answers
| COMPOUND | TGI |
| --- | --- |
| COc1ccc(C(=O)CC(c2ccc(OC)c(OC)c2)c2c(O)c3ccccc3oc2=O)cc1OC (stereo not drawn) | > 100 µM |
| COc1ccc(/C=C2\CN(C)Cc3c2[nH]c(=O)c(C#N)c3-c2ccc(OC)cc2)cc1 | > 100 µM |

Moving on to the next compound.
Data point: O=C(c1ccccc1)N1C(=S)N(c2ccc([N+](=O)[O-])cc2)C(=Nc2ccccc2)C1=Nc1ccccc1 ; TGI = > 100 µM

###

Reported TGI values are given for each entry in this list.
# Tested on: SF-539 CNS
# ASSAY_SUMMARY: NCI tumour cell line growth inhibition, 48 h

# example entries with known answers
| MOLECULE | TGI |
| --- | --- |
| CC(C)=CC1CC(C)C2(CCC3(C)CC4C(C(=O)CC4(C)O)/C(C=O)=C\CC32)O1 (stereo unspecified) | 0.239 µM |
| C=C(C)[C@@H]1CC[C@]2(C(=O)NCCNCCNCCN)CC[C@]3(C)[C@H](CC[C@@H]4[C@@]5(C)CCC(=O)C(C)(C)[C@@H]5CC[C@]43C)[C@@H]12 | 14.6 µM |
| O=C(NC1(C(=O)O)CC1c1ccccc1)c1ccccc1 (stereo unspecified) | > 100 µM |
| CC1=CC2CC(C)C1(C)CCc1ccoc12 (stereo unspecified) | > 100 µM |
| COc1ccc2c(c1)CCCC1C3=NCCC3(C)CSC21 (stereo unspecified) | > 100 µM |

Moving on to the next molecule.
Data point: COc1ccc2c(c1)-c1oc3ccccc3c(=O)c1CO2 ; TGI = > 100 µM

###

# Tested on: U251 CNS
# ASSAY_SUMMARY: NCI tumour cell line growth inhibition, 48 h
QUANTITY_NAME: TGI

| MOLECULE | TGI |
| --- | --- |
| Cc1ccc(C[P+](c2ccccc2)(c2ccccc2)c2ccccc2)cc1 | > 39.3 µM |

Field TGI (system: U251 CNS) for entry CCOc1cc(C2SCC(=O)N2c2nc3cc4sc(N5C(=O)CSC5c5ccc(O)c(OCC)c5)nc4cc3s2)ccc1O (centres undefined) = > 100 µM

Field TGI (system: U251 CNS) for entry CC1=CC2CC(C)C1(C)CCc1ccoc12 (centres undefined) = > 100 µM

Field TGI (system: U251 CNS) for entry CCS(=O)(=O)c1c2cc(OC)ccc2nc2ccc(OC)cc12 = > 100 µM

###

# Test system: HCT-116 colon
# ASSAY_SUMMARY: NCI tumour cell line growth inhibition, 48 h
Reported TGI values are given for each entry in this list.

# example entries with known answers
| COMPOUND | TARGET_OR_TEST_SYSTEM | EXPERIMENTAL_RESULT |
| --- | --- | --- |
| O=C(OCc1ccccc1)N1c2cc([N+](=O)[O-])ccc2C(=O)N2CCC[C@H]2C1O (stereo partly drawn) | HCT-116 colon | > 100 µM |
| Cc1ccccc1C(C(=O)NC1CCCCC1)N(C(=O)Cn1ccnc1C)c1cccc(F)c1 (stereo not drawn) | HCT-116 colon | > 100 µM |
| COc1cc2ncn(-c3cc(OCc4ccccc4S(C)(=O)=O)c(C#N)s3)c2cc1OC | HCT-116 colon | > 25 µM |
| COc1cc(/C=C2\C(=O)Nc3ccccc32)cc(OC)c1OC | HCT-116 colon | > 100 µM |
| Cc1cc([N+](=O)[O-])ccc1N=NC(=O)NNc1ccc([N+](=O)[O-])cc1C | HCT-116 colon | 28.2 µM |
| CCOC(=O)C(=Cn1c(=S)[nH]c2ccc([N+](=O)[O-])cc21)C(=O)OCC | HCT-116 colon | > 100 µM |

Data point: CCOc1cc(C2SCC(=O)N2c2nc3cc4sc(N5C(=O)CSC5c5ccc(O)c(OCC)c5)nc4cc3s2)ccc1O (stereo not drawn) ; TGI = > 100 µM

Data point: COC(=O)n1c(CBr)c(Br)c2ccccc21 ; TGI = > 100 µM

Data point: CC(C)=CC1CC(C)C2(CCC3(C)CC4C(C(=O)CC4(C)O)/C(C=O)=C\CC32)O1 (stereo not drawn) ; TGI = 0.15 µM

Data point: O=C(O)C1SCCS1 ; TGI = > 100 µM

Data point: CS(=O)(=O)O.[Ag] ; TGI = 20 µM

Data point: COC(=O)c1ccccc1CC(Cc1ccccc1)C(=O)OC (stereo not drawn) ; TGI = > 100 µM

Data point: NCCCCNC1(c2cc3ccccc3s2)CCCCC1 ; TGI = 14.9 µM
